Test system: SF-295
method.notes: NCI tumour cell line growth inhibition, 48 h
Calls of active or inactive are those of the source. Rule as the data show it: active = GI50 up to about 1.1 µM and inactive = higher.
Pick one and only one: 1 (active), 0 (inactive)

{"molecule": "CC[C@@H]1CSC(/C=C/C2OC3OC(C)(C)OC3C3OC(C)(C)OC23)=N1 (stereo not given in full)", "class.name": 0}
{"molecule": "O=C(NCCc1ccccn1)c1ccc2cc(C(=O)N3CC(CCl)c4ccc([N+](=O)[O-])cc43)[nH]c2c1 (stereo not given)", "class.name": 0}
{"molecule": "O=C1NCN(c2ccccc2)C12CCN(CCCN1CCN(CCOC(c3ccc(F)cc3)c3ccc(F)cc3)CC1)CC2", "class.name": 0}
{"molecule": "COC(=O)Nc1nc2cc(Br)ccc2[nH]1", "class.name": 0}
{"molecule": "Cc1oc2c(c1C)S(=O)(=O)C(C#N)=C(c1ccccc1)N2", "class.name": 0}
{"molecule": "Nc1nc(N)c2c(n1)NC(=O)c1c(c3ccccc3n1Cc1ccc(Cl)cc1)C2", "class.name": 0}
{"molecule": "CCOC(=O)c1cc2c3c(c(C(C)=O)c(O)c2[nH]1)N(C(C)=O)CC3", "class.name": 0}
{"molecule": "CC1(C)CC2=NC(SSC3=C(C#N)C(c4ccc(Br)cc4)C4=C(O)CC(C)(C)CC4=N3)=C(C#N)C(c3ccc(Br)cc3)C2=C(O)C1 (stereo not given)", "class.name": 0}
{"molecule": "O=C(Cc1ccc(Cl)c(Cl)c1)N(CCc1ccc(Cl)c(Cl)c1)CCN1CCCC1", "class.name": 0}
{"molecule": "CCOC(=O)C1(Cc2ccccc2)CCCCCN1 (stereo not given)", "class.name": 0}

Task: Query: recorded result category for C=C1c2ccccc2C(=O)c2c1c1c(C(=O)OC)c(O)ccc1n2Cc1ccccc1 in this test
Result: 1

Task: Hi team, can someone confirm the assay call for C[C@@H]1[C@H](c2ccccc2)O[B-]2(c3ccc(Br)cc3)OC(=O)C[N+]12C (stereo not given in full) ?
Result: 0

Task: Which outcome was entered for the molecule CCCCCCCCCCCCCCCC(=O)OCC1OC(n2cc(F)c(=O)[nH]c2=O)C(NC(=O)N(CCCl)N=O)C(O)C1O (stereo not given) in this test?
Result: 1

Task: Could you check what this test reported for O=C(O)CNC(=O)c1c2ccccc2nc2ccccc12 ?
Result: 0

Task: Could you check what this test reported for C1CSCCCSCCCSCCCSCCCSCCCSCCCSCCCSC1 ?
Result: 0

Task: Would you mind telling me which call this test gave O=c1cc(N2CCOCC2)oc2c(-c3ccccc3)cccc12 ?
Result: 0

Task: Returns: the outcome recorded for CC1=CC(=O)NP(=O)(C23CC4CC(CC(C4)C2)C3)N1 (stereo not given) in this assay.
Result: 0

Task: Short answer needed: outcome of this test for N#Cc1c(-c2ccccc2)c(/C=N/c2ccc(Cl)cc2)c(=O)n2c1[nH]c1ccccc12 ?
Result: 0

Task: Record lookup: outcome of this test for Cc1cc2c(cc1N)C(C)C1(CCC(=O)N2Cc2ccccc2)OCCO1 (stereo not given) ?
Result: 0

Task: # lookup: test call for c1sc(NC2=NCCO2)c2c1CCCC2
Result: 0

###

System: SF-295
method.notes: NCI tumour cell line growth inhibition, 48 h
Activity calls are given as the source filed them. No stated cut-off is given here; in the data, active = GI50 up to about 1.1 µM and inactive = higher.
result.type: GI50

Solved entries:
{"molecule": "C=C1CC[C@@]2(C)[C@@H]([C@@H]1C)[C@H]1CC[C@@H]3[C@@]4(C)CC[C@H](O)C(C)(C)[C@@H]4CC[C@@]3(C)[C@]1(C)C[C@@H]2O", "GI50": "3.49 µM (inactive)"}
{"molecule": "c1ccc2[nH]c(-c3nc4ccccc4o3)nc2c1", "GI50": "> 100 µM (inactive)"}
{"molecule": "O=[N+]([O-])c1ccc2nc(Nc3ccccc3)c(Nc3ccccc3)nc2c1", "GI50": "1.14 µM (inactive)"}
{"molecule": "O=C(O)[C@@H]1C2CC([C@@H]1C(=O)O)[C@H](N1C(=O)CCC1=O)[C@@H]2Br (stereo not given in full)", "GI50": "> 100 µM (inactive)"}
{"molecule": "C=CCOC1=C(OCC=C)C(C2COC(C)(C)O2)OC1=O (stereo not given)", "GI50": "> 100 µM (inactive)"}

Below are some molecules; for each one, tell me its GI50.
1. Cc1c(C(=O)CSc2nc3ccccc3[nH]2)c(=O)n(-c2ccccc2)n1C
2. CC1(CO)OC1COCc1ccccc1 (stereo not given)
3. Nc1c(O)c(C(=O)O)cc2ccccc12

Result:
["> 100 µM (inactive)", "> 100 µM (inactive)", "51.8 µM (inactive)"]

// for each molecule below, give its GI50
1. CC(/C=N/N=C1NCCCN1)=N\N=C1NCCCN1
2. CC(=O)OCC(C)C1=C(OC(C)=O)C(=O)C2(C)C/C=C(/C)CC/C=C(\C)CCC(OC(C)=O)C(C)CCC12 (stereo not given)

Result:
["> 100 µM (inactive)", "15.8 µM (inactive)"]
